Target: Plasmodium falciparum protein kinase 6 (PK6, PF3D7_1337100) (UniProt Q8IDW1)
Sequence (Q8IDW1 1-305): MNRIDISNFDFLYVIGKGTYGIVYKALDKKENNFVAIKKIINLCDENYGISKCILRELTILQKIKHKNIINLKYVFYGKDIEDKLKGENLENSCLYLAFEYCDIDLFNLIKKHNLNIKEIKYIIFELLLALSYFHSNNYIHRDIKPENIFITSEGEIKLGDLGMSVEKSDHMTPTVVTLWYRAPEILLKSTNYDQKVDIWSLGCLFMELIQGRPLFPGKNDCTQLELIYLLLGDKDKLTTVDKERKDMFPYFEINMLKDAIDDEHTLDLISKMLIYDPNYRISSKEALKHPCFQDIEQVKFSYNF
Assay: PfPK6 kinase inhibitors, biochemical, TCAMS library (AID 1159586)
Settings: recombinant PfPK6, Kinase-Glo ATP depletion luminescence
Entries with a potency or affinity are not part of this list. Calls of active or inactive are those of the source. No rule for the calls is given here.
assay readout: outcome

molecule=CC(C)NCc1ccc(-c2ccc(NC(=O)c3cccc(C#N)c3)cc2)cc1 reading=inactive
molecule=CCCCCCn1ccc2c3c(N)nc(N)nc3ccc21 reading=inactive
molecule=COc1cc(CCNC(=O)Cc2ccc3ccccc3c2)ccc1OCc1ccccc1 reading=inactive
molecule=COc1ccc2nccc([C@@H](O)CN3CCC(NCc4cc5ccccc5o4)CC3)c2c1 reading=inactive
molecule=CN(C)Cc1cccc(-c2ccc(NC(=O)c3ccc4c(=O)n(Cc5cnn(C)c5)cnc4c3)cc2)c1 reading=inactive
molecule=CC(C)(C)c1ccc2nc(-c3ccc(C(=O)NCc4cccc(C(F)(F)F)c4)cc3)[nH]c2c1 reading=inactive

q: Field request: outcome | item: `CC(C)NCc1ccc(-c2cccc(-c3nc4ccc(C(F)(F)F)cc4[nH]3)c2)cc1`
a: inactive

q: Field request: outcome | item: `CC(C)(CNCc1ccc(F)c(F)c1)c1nc(-c2ccc(Cl)c(O)c2)c(-c2ccnc(N)n2)[nH]1`
a: inactive

q: Field request: outcome | item: CC(Sc1n[nH]c(-c2ccccc2Br)n1)C(=O)Nc1ccc(F)cc1 (stereo not given)
a: inactive

q: Field request: outcome | item: `O=C(Nc1cccc(CN2CCCN(Cc3ccccc3)CC2)c1)c1cc2ccccc2s1`
a: inactive
